target-or-system: UniProt:P30613
assay-method-text: Luminescence Biochemical Assay (Kinase Glo Plus), wild type PKR
experimental-parameters: without FBP, read-out: AC50 LUM KGP woFBP MAX % FOLD mean
observation-type: Emax

stdin: Value lookup for Emax; key = "CN(C)CCC(=O)N1CC2=C(C1)CN(S(=O)(=O)c1ccc3occc3c1)C2"
stdout: 75 to 250%

stdin: Note, next up: "O=C([C@H](O)c1ccccc1)N1CC2=C(C1)CN(S(=O)(=O)c1cccc(C(F)(F)F)c1)C2"
stdout: 75 to 250%

----------
target-or-system: PKR(R510Q) (Homo sapiens, UniProt P30613, R510Q)
Sequence (P30613 whole entry R510Q): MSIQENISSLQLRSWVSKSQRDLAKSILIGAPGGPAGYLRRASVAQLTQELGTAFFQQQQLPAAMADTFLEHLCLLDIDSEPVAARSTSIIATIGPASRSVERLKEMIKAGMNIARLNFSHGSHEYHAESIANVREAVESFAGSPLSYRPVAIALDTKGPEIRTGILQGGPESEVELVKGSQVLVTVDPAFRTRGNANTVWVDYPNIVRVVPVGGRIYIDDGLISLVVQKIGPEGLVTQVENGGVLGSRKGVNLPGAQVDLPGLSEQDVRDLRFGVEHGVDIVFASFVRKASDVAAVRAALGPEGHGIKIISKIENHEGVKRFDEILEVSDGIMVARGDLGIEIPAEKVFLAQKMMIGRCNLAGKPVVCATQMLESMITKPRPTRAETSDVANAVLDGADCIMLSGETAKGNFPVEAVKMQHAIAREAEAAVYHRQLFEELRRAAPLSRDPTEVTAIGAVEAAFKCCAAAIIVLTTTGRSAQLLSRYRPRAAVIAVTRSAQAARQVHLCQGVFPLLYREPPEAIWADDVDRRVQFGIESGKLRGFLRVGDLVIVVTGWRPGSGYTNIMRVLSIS
assay-method-text: Luminescence Biochemical Assay (Kinase Glo Plus), PKR R510Q mutant
experimental-parameters: without FBP, read-out: AC50 LUM KGP woFBP MAX % FOLD mean
observation-type: Emax

CC(C)Oc1ccc(CNC(=O)N2CC3=C(C2)CN(S(=O)(=O)c2ccc4ncsc4c2)C3)cc1 [Example 21-31]; 75 to 250%
O=C(C(O)c1cccc(F)c1)N1CC2=C(C1)CN(S(=O)(=O)c1ccc(OC(F)F)cc1)C2 (stereo not drawn) [Example 18-22]; 250 to 500%
COc1ccc(S(=O)(=O)N2CC3=C(CN(C(=O)[C@H](O)c4ccccc4)C3)C2)cc1F [Example 18-17]; 250 to 500%
O=C(NCc1ccno1)N1CC2=C(C1)CN(S(=O)(=O)c1ccc3ncsc3c1)C2 [Example 21-27]; 75 to 250%

stdin: Would you kindly share the measured Emax for O=C(Cc1cccnc1)N1CC2=C(C1)CN(S(=O)(=O)c1ccccn1)C2 [Example 16-1] ?
stdout: 75 to 250%

stdin: And then O=C(Cc1ccc(F)cc1F)N1CC2=C(C1)CN(S(=O)(=O)c1cccnc1)C2 [Example 18-66] , what is it?
stdout: 250 to 500%

stdin: Next entry: O=C([C@H](O)c1ccccc1)N1CC2=C(C1)CN(S(=O)(=O)c1ccc(F)c(F)c1)C2 [Example 18-53]
stdout: 75 to 250%
